Each record here notes measured IC50.
TARGET_DESC: Phosphodiesterase 4 (Homo sapiens, UniProt P27815+Q08499+Q07343+Q08493)
ASSAY_NOTES: Inhibition of phosphodiesterase 4 extracted from human U937 cells by using radioligands [3H]-cAMP or [3H]cGMP.
Type: cell-free
TEST_CONDITIONS: u-937
Quick note: give the figure in nM, leave out the unit.

STRUCTURE_STRING	READING_UNIT	IC50
Cc1cc2c3c(c1)C(c1ccccc1)=N[C@@H](NC(=O)c1cc4ccccc4cn1)C(=O)N3CC2	nM	2600
COc1cc2c3c(c1)C(c1ccccc1)=N[C@@H](NC(=O)c1ccc(Cl)cc1)C(=O)N3CC2	nM	1800
Cc1cc2c3c(c1)C(c1ccccc1)=N[C@@H](NC(=O)c1cc(Cl)c(N)c(Cl)c1)C(=O)N3CC2	nM	330
COc1cc2c3c(c1)C(c1ccccc1)=N[C@@H](NC(=O)c1cc4ccccc4[nH]1)C(=O)N3CC2	nM	650
Nc1c(Cl)cc(C(=O)N[C@@H]2N=C(c3ccccc3)c3cccc4c3N(CC4)C2=O)cc1Cl	nM	630
Cc1cc2c3c(c1)C(c1ccccc1)=N[C@@H](NC(=O)c1nnc4cc(C)nn4c1C)C(=O)N3CC2	nM	710

Ask | GET /values?readout=IC50&item= "Cc1cc2c3c(c1)C(c1ccccc1)=N[C@@H](NC(=O)c1cc(Cl)cc(Cl)c1)C(=O)N3CC2"
Reply | 1150

Ask | GET /values?readout=IC50&item= "Cc1cc2c3c(c1)C(c1ccccc1)=N[C@@H](NC(=O)c1ccc(Cl)cc1)C(=O)N3CC2"
Reply | 1250

Ask | GET /values?readout=IC50&item= "O=C(N[C@H]1N=C(c2ccccc2)c2cccc3c2N(CC3)C1=O)c1cc2ccccc2[nH]1"
Reply | 100000

Ask | GET /values?readout=IC50&item= "COc1ccccc1C(=O)N[C@@H]1N=C(c2ccccc2)c2cc(C)cc3c2N(CC3)C1=O"
Reply | 760

Ask | GET /values?readout=IC50&item= "Cc1cc2c3c(c1)C(c1ccccc1)=N[C@@H](NC(=O)c1ccc(Cl)cc1Cl)C(=O)N3CC2"
Reply | 760

Ask | GET /values?readout=IC50&item= "O=C(N[C@@H]1N=C(c2ccccc2)c2cc(O)cc3c2N(CC3)C1=O)c1cc2ccccc2cn1"
Reply | 410

Ask | GET /values?readout=IC50&item= "COc1cc2c3c(c1)C(c1ccccc1)=N[C@@H](NC(=O)c1cc4ccccc4cn1)C(=O)N3CC2"
Reply | 1620

Ask | GET /values?readout=IC50&item= "O=C(N[C@@H]1N=C(c2ccccc2)c2cccc3c2N(CC3)C1=O)c1cc2ccccc2[nH]1"
Reply | 4000

Ask | GET /values?readout=IC50&item= "O=C(N[C@@H]1N=C(c2ccccc2)c2cccc3c2N(CC3)C1=O)c1cc2ccccc2cn1"
Reply | 4200

Ask | GET /values?readout=IC50&item= "COc1ccc(C(=O)N[C@@H]2N=C(c3ccccc3)c3cc(C)cc4c3N(CC4)C2=O)c(OC)c1"
Reply | 960

Ask | GET /values?readout=IC50&item= "Cc1cc2c3c(c1)C(c1ccccc1)=N[C@@H](NC(=O)c1ccncc1)C(=O)N3CC2"
Reply | 1140

====

TARGET_DESC: Phosphodiesterase 3 (Homo sapiens, UniProt Q14432+Q13370)
ASSAY_NOTES: Inhibition of Phosphodiesterase 3 extracted from dog aorta smooth muscle cells by using radioligands [3H]cAMP or [3H]-cGMP.
Parameters: species or system Canis lupus familiaris
TEST_CONDITIONS: target entry is the homologue from another species
METRIC: IC50

Answered cases to consult:
Cc1cc2c3c(c1)C(c1ccccc1)=N[C@@H](NC(=O)c1cc(Cl)c(N)c(Cl)c1)C(=O)N3CC2 17.5 µM
COc1cc2c3c(c1)C(c1ccccc1)=N[C@@H](NC(=O)c1cc4ccccc4[nH]1)C(=O)N3CC2 > 100 µM
COc1ccccc1C(=O)N[C@@H]1N=C(c2ccccc2)c2cc(C)cc3c2N(CC3)C1=O > 100 µM

Ask | GET /values?readout=IC50&item= "Nc1c(Cl)cc(C(=O)N[C@@H]2N=C(c3ccccc3)c3cccc4c3N(CC4)C2=O)cc1Cl"
Reply | > 100 µM

====

Each record here notes measured IC50.
TARGET_DESC: Phosphodiesterase 3 (Homo sapiens, UniProt Q14432+Q13370)
ASSAY_NOTES: Inhibition of Phosphodiesterase 3 extracted from dog aorta smooth muscle cells by using radioligands [3H]cAMP or [3H]-cGMP.
Set-up: species or system Canis lupus familiaris
TEST_CONDITIONS: target entry is the homologue from another species

Answered cases to consult:
COMPOUND	IC50
O=C(N[C@@H]1N=C(c2ccccc2)c2cc(O)cc3c2N(CC3)C1=O)c1cc2ccccc2cn1	> 3.5 µM
O=C(N[C@H]1N=C(c2ccccc2)c2cccc3c2N(CC3)C1=O)c1cc2ccccc2[nH]1	> 100 µM
Cc1cc2c3c(c1)C(c1ccccc1)=N[C@@H](NC(=O)c1nnc4cc(C)nn4c1C)C(=O)N3CC2	> 100 µM
Cc1cc2c3c(c1)C(c1ccccc1)=N[C@@H](NC(=O)c1cc(Cl)cc(Cl)c1)C(=O)N3CC2	43.7 µM
O=C(NC1N=C(c2ccccc2F)c2cc(Cl)cc3c2N(CC3)C1=O)c1cc2ccccc2[nH]1 (centres undefined)	> 100 µM
O=C(N[C@@H]1N=C(c2ccccc2)c2cccc3c2N(CC3)C1=O)c1cc2ccccc2[nH]1	> 100 µM
O=C(NC1N=C(c2ccccc2)c2ccccc2NC1=O)c1cc2ccccc2[nH]1 (centres undefined)	> 100 µM
Cc1cc2c3c(c1)C(c1ccccc1)=N[C@@H](NC(=O)c1ccc(Cl)cc1Cl)C(=O)N3CC2	17.5 µM

From here, focus on the item given below.
Ask | Item "O=C(N[C@@H]1N=C(c2ccccc2F)c2cccc3c2N(CC3)C1=O)c1cc2ccccc2[nH]1" with Phosphodiesterase 3 (Homo sapiens, UniProt Q14432+Q13370) - IC50?
Reply | > 100 µM

====

TARGET_DESC: Phosphodiesterase, PDE1/PDE5 (Homo sapiens, UniProt O76074+P54750+Q01064+Q14123)
ASSAY_NOTES: Inhibitory activity against phosphodiesterase 1/5 (PDE1/5) extracted from guinea pig trachea smooth muscle cells by using radioligands [3H]-cAMP or [3H]cGMP
Format: tissue-based, Cavia porcellus
TEST_CONDITIONS: target entry is the homologue from another species
Each record here notes measured IC50.

COMPOUND	IC50
O=C(NC1N=C(c2ccccc2)c2cccc3c2N(CCC3)C1=O)c1cc2ccccc2[nH]1 (stereo not drawn)	> 100 µM
Cc1cc2c3c(c1)C(c1ccccc1)=N[C@@H](NC(=O)c1ccncc1)C(=O)N3CC2	> 100 µM

Ask | GET /values?readout=IC50&item= "Cc1cc2c3c(c1)C(c1ccccc1)=N[C@@H](NC(=O)c1cc(Cl)c(N)c(Cl)c1)C(=O)N3CC2"
Reply | > 100 µM
